- Test system: HIV-1 SAQR (L10F, G48V, L90M)
- method: Inhibition of virus-induced cytopathogenicity in MT-4 cells, PRI-resistant mutant SAQR
- Assay type: cell-based
- runParameters: in round brackets
- Description: HIV-1IIIB and HIV-2 CBL-20 strains were obtained from the supernatants of persistently infected H9/IIIB and CEM cells, respectively. HIV-1 and HIV-2 stock solutions had titres of 4.5 × 10^7 and 1.4 × 10^6 50% cell culture infectious doses (CCID50)/ml, respectively. […] The K103R + V179D + P225H mutant (EFVR) was derived from an IIIB strain passaged in MT-4 cells in the presence of Efavirenz (up to 2 μM). […]
measureName: Selectivity Index (SI = CC50/EC50) SAQR

Worked set:
compound	experimentalResult
O=c1c2ccccc2sn1NS(=O)(=O)c1ccc(F)cc1 [Compound 11]	12
Cc1ccc2sn(NS(=O)(=O)c3ccccc3Cl)c(=O)c2c1 [Compound 17]	12
O=c1c2ccc(Cl)cc2sn1NS(=O)(=O)c1ccccc1Cl [Compound 19]	2
O=c1c2ccccc2sn1NS(=O)(=O)c1ccccc1F [Compound 10]	> 14
O=c1c2ccccc2sn1N(S(=O)(=O)c1ccc([N+](=O)[O-])cc1)S(=O)(=O)c1ccc([N+](=O)[O-])cc1 [Compound 22]	> 4
O=c1c2ccccc2sn1NS(=O)(=O)c1ccccc1 [Compound 6]	10

Test system HIV-1 SAQR (L10F, G48V, L90M); read-out Selectivity Index (SI = CC50/EC50) SAQR; what value for O=c1c2ccccc2sn1N(S(=O)(=O)c1ccccc1)S(=O)(=O)c1ccccc1 [Compound 20] ?
> 4

Same question, Cc1ccc(S(=O)(=O)Nn2sc3ccccc3c2=O)cc1 [Compound 7] this time
3

Here is the next compound: O=c1c2ccccc2sn1NS(=O)(=O)c1ccc(Cl)cc1 [Compound 13]
4

Next entry: COc1ccc(S(=O)(=O)Nn2sc3ccccc3c2=O)cc1 [Compound 9]
8

Here is the next compound: O=c1c2ccccc2sn1NS(=O)(=O)c1ccc(Cl)c(Cl)c1 [Compound 15]
8

How about this compound: O=c1c2ccccc2sn1NS(=O)(=O)c1cccc(Cl)c1 [Compound 14]
10

###

- testedSystem: HIV-1 recombinant integrase (rIN) (Human immunodeficiency virus type 1 group M subtype B, UniProt P04585)
- Construct: HIV-1 recombinant integrase (rIN); made in house
- method: Integrase (rIN) enzyme assays: 3'-processing and strand transfer
- Assay type: biochemical
- runParameters: recombinant HIV-1 integrase; read-out: IC50 Strand-transfer
- Excerpt: ^aCompound concentration (µM) required to reduce the amount of 3’-end-labeled duplex of 21/19mers substrates, in 3’-processing and strand-transfer reactions catalyzed by the recombinant HIV-1 integrase, by 50%. Data represent mean values for three independent determinations.
pIC50: −log10 of the molar value.
measureName: pIC50

Name the recorded pIC50 for O=c1c2ccccc2sn1NS(=O)(=O)c1ccccc1 .
< 4.52

###

- Test system: HIV-1 EFVR (K103R + V179D + P225H)
- method: Inhibition of virus-induced cytopathogenicity in MT-4 cells, NNRTI-resistant mutant EFVR
- Type: cell-based
- runParameters: Human immunodeficiency virus 1, MT4, read-out: EC50 EFVR
Here the recorded EC50 is given for each entry.
The answer is to be given in µM; state only the numeric part.

Recorded EC50, per entry:
molecularString	experimentalResult
O=c1c2ccccc2sn1NS(=O)(=O)c1cc(Cl)cc(Cl)c1	10
O=c1c2ccccc2sn1NS(=O)(=O)c1ccccc1Cl	9
O=c1c2ccccc2sn1NS(=O)(=O)c1ccc(F)cc1	2
O=c1c2ccccc2sn1NS(=O)(=O)c1ccc(Cl)cc1	3

Below: the item to evaluate.
What does the record list as EC50 for Cc1ccc(S(=O)(=O)N(n2sc3ccccc3c2=O)S(=O)(=O)c2ccc(C)cc2)cc1 ?
70
